Assay: in vitro
Details: human, liver microsomes
Assignment: determine reported log10(half-life) for the given compounds.
Please be aware that the numbers have been log10-transformed from half-life in h.

Please give the measured log10(half-life) for this compound: `Nc1nccc(Oc2ccc(Nc3nccc4[nH]cc(-c5ccc(F)cc5)c(=O)c34)cc2F)c1Cl`
0.50

Next compound up: `Cn1cc(-c2ccc(F)cc2)c(=O)c2c(Nc3ccc(Oc4ccnc(NC(=O)C5CC5)c4)c(F)c3)nccc21`
1.17

Next compound up: `CCC(=O)Nc1cc(Oc2ccc(Nc3nccc4[nH]cc(-c5ccc(F)cc5)c(=O)c34)cc2F)ccn1`
0.43

Next compound up: `O=C(CO)Nc1cc(Oc2ccc(Nc3nccc4[nH]cc(-c5ccc(F)cc5)c(=O)c34)cc2F)ccn1`
0.86

Next compound up: CC(O)C(=O)Nc1cc(Oc2ccc(Nc3nccc4[nH]cc(-c5ccc(F)cc5)c(=O)c34)cc2F)ccn1 (configuration not stated)
0.62

Next compound up: `O=C(Nc1cc(Oc2ccc(Nc3nccc4[nH]cc(-c5ccc(F)cc5)c(=O)c34)cc2F)ccn1)C1CC1`
1.12

Next compound up: `O=C(Nc1cc(Oc2ccc(Nc3nccc4[nH]cc(-c5ccc(F)cc5)c(=O)c34)cc2F)ccn1)C1CCCCC1`
0.13
